# Tested on: PC-3 [JPC-3]
# testDetails: relative viability (nuclei count vs DMSO), 5 days (fraction); higher = more cells survive
# testConditions: first compound 2.53 µM
assayReadout: relative viability
Give the value as a plain number.

Record excerpt, results attached:
>  <compound>
C=C1C(=O)O[C@@H](CCCCCCCC)[C@@H]1C(=O)O [C-75] + Cc1nc(NC(=O)N2CCC[C@H]2C(N)=O)sc1-c1ccnc(C(C)(C)C(F)(F)F)c1 [Alpelisib] (partner 2 µM)

>  <relative viability>
1.09

$$$$
>  <compound>
C=C1C(=O)O[C@@H](CCCCCCCC)[C@@H]1C(=O)O [C-75] + C[C@]1(O)C[C@@H](c2nc(-c3ccc4ccc(-c5ccccc5)nc4c3)c3c(N)nccn32)C1 [Linsitinib] (partner 1 µM)

>  <relative viability>
1.02

$$$$

Field: next compound
Asked: // query relative viability value for entry Oc1nc(-c2ccc(C(F)(F)F)cc2)nc2c1CSCC2 [XAV939] + COc1cccc2cc(-c3nc([C@H]4CC[C@H](C(=O)O)CC4)n4ncnc(N)c34)[nH]c12 [OSI-027] (partner 0.5 µM)
Given back: 0.599
